For each record, write down the corresponding inhibition.
# TARGET: Tyrosine-protein phosphatase non-receptor type 1 (Homo sapiens)
# Sequence (whole entry): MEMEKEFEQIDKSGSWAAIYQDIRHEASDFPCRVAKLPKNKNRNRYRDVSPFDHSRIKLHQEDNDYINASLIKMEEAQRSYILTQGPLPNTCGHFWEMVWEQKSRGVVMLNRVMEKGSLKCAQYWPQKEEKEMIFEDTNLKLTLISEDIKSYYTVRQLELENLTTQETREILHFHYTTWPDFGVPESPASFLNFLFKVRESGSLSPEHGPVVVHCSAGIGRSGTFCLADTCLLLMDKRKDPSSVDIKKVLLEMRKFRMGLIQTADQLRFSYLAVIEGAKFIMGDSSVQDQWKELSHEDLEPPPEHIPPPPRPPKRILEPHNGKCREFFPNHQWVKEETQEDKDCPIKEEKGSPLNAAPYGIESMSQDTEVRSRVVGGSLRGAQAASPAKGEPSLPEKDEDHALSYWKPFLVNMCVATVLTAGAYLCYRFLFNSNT
# PROCEDURE DETAILS: Inhibition of recombinant human PTP1B using p-nitrophenyl phosphate as substrate at 10 uM after 30 mins relative to control
Give bare numbers, in %.

Worked set:
CC(C)=CCc1c(O)c(CC=C(C)C)c2oc(-c3ccc(O)cc3)cc(=O)c2c1O | 47
CC1(C)C=Cc2c(ccc(-c3coc4cc(O)cc(O)c4c3=O)c2O)O1 | 69
O=C(/C=C/c1ccc(O)c(O)c1)c1ccc(O)c(O)c1 | 1
O=C1C[C@@H](c2cc(O)cc(O)c2)Oc2cc(O)ccc21 | 2

Now for another entry.
Measured on Tyrosine-protein phosphatase non-receptor type 1 (Homo sapiens), CC(C)=CCc1c(O)cc(O)c2c(=O)c(-c3ccc(O)cc3)coc12 has a documented inhibition of 0

###

# PROCEDURE DETAILS: Growth inhibition of human LO2 cells at 10 uM after 24 hrs by MTS assay relative to control
# Type: cell-based, L02
# TEST SETTINGS: LO2 cells, read-out: GI
Parameter threshold = 6%. Response is class 1 when inhibition at 24 h, 10 µM meets or exceeds it, else class 0.

CC(C)=CCc1cc([C@@H]2CC(=O)c3ccc(O)c(CC=C(C)C)c3O2)ccc1O | class 1

Continue with the next molecule.
[Q] Could you please find out whether CC1(C)C=Cc2cc(-c3coc4cc(O)cc(O)c4c3=O)cc(O)c2O1 has inhibition at 24 h, 10 µM that meets 6% or exceeds it?
[A] class 1

###

# TARGET: Tyrosine-protein phosphatase non-receptor type 1 (Homo sapiens) (UniProt P18031)
# PROCEDURE DETAILS: Inhibition of recombinant human PTP1B using p-nitrophenyl phosphate as substrate at 10 uM after 30 mins relative to control
Parameter threshold = 40%. Response is true (1) when inhibition meets or exceeds it, else false (0).

[Q] Could you please find out whether COc1cc(O)ccc1/C=C/C(=O)c1ccc(O)cc1 [ECHINATIN] has inhibition that meets 40% or exceeds it?
[A] true (1)

###

# PROCEDURE DETAILS: Growth inhibition of human HEK293T cells at 10 uM after 24 hrs by MTS assay relative to control
# Type: cell-based, HEK-293T
# TEST SETTINGS: HEK293T cells, read-out: GI
Parameter threshold = 20%. Response is 1 (yes) when inhibition at 24 h, 10 µM meets or exceeds it, else 0 (no).

Solved entries (count: 5):
CC(C)=CCc1c(O)ccc2c1O[C@H](c1ccc3c(c1)C=CC(C)(C)O3)CC2=O | 1 (yes)
CC(C)=CCc1c(O)cc2occ(-c3cc(O)c4c(c3)C=CC(C)(C)O4)c(=O)c2c1O | 0 (no)
COc1c(/C=C/C(=O)c2ccc(O)c(O)c2)ccc(O)c1CC=C(C)C | 1 (yes)
C=C(C)[C@H](C)c1cc(/C=C/C(=O)c2ccc(O)cc2)c(OC)cc1O [LICOCHALCONE E] | 1 (yes)
CC(C)=CCc1c(O)c(CC=C(C)C)c2occ(-c3ccc(O)cc3)c(=O)c2c1O | 1 (yes)

[Q] Could you please find out whether COc1c(/C=C/C(=O)c2ccc(O)cc2)ccc(O)c1O has inhibition at 24 h, 10 µM that meets 20% or exceeds it?
[A] 0 (no)

[Q] Could you please find out whether CC1(C)C=Cc2c(O)ccc(-c3coc4cc(O)cc(O)c4c3=O)c2O1 has inhibition at 24 h, 10 µM that meets 20% or exceeds it?
[A] 0 (no)

[Q] Could you please find out whether CC(C)=CCc1c(O)cc2occ(-c3ccc4c(c3O)C=CC(C)(C)O4)c(=O)c2c1O has inhibition at 24 h, 10 µM that meets 20% or exceeds it?
[A] 1 (yes)
